biological target: T1, huCD47-D1-his (recombinant human CD47 extracellular region D1 with C-terminal His tag) (human (homo sapiens), UniProt Q08722 19-141); experiment: SPR BIAcore, by the method of Example 3 (antibody captured, huCD47-D1-his analyte)
T1 construct: Expressed in HEK293 cells; analyte in the Biacore measurements and antigen of the phage panning; also called huCD47-his; hCD47; not shown: His tag added at the C-terminus
Measured Kd, listed per entry.
Respond numerically; units are nM and should not be typed.

binder	measured attribute	unit of measurement	assay value
S4D12-IgG4 (mouse-human chimeric antibody, human IgG4-kappa) (antibody, V domains shown, also called 人-鼠嵌合单抗S4D12) VH: QVQLQQPGAELVKPGASVKMSCKASGYTFTNYWMHWVKQRPGQGLEWIGVIAPSDNYTNYNQKFQGKATLTVDTSSSTAYMQLSSLTSEDSAVYYCTKGGKYSMDYWGQGTSVTVSS VL: DVLMTQTPLSLPVSLGDQASISCRSSQSIVHSNGNTYLEWYLQKPGQSPKLLIYKVSNRFSGVPDRFSGSGSGTDFTLKISRVEAEDLGVYYCFQGSHVPFTFGSGTKLEIKR	Kd	nM	8.56
hS4D12-IgG4 (humanized S4D12) (antibody, V domains shown) VH: QVQLVQSGAEVKKPGASVKVSCKASGYTFTNYWMHWVRQRPGQGLEWIGVIAPSDNYTNYNQKFQGRVTMTVDTSTSTVYMELSSLRSEDTAVYYCTKGGKYSMDYWGQGTTVTVSS VL: DIVMTQTPLSLPVTPGEPASISCRSSQSIVHSNGNTYLEWYLQKPGQSPQLLIYKVSNRFSGVPDRFSGSGSGTDFTLKISRVEAEDVGVYYCFQGSHVPFTFGQGTKLEIK	Kd	nM	9.6
hS2C3-IgG4 (humanized S2C3) (antibody, V domains shown) VH: QVQLVQSGAEVKKPGASVKVSCKASGYTFTDYYMHWVRQAPGQRLEWMGWINPSSGNTKYAQKFQDRVTMTRDTSTSTVYMELSSLRSEDTAVYYCARREEDYFDYWGQGTLVTVSS VL: DIVMTQSPDSLAVSLGERATINCKSSQSLLYPSNKKNYLTWYQQKPGQPPKLLIYWASTRESGVPDRFSGSGSGTDFTLTISSLQAEDVAVYYCQEYYAYPLSFGQGTKLEIK	Kd	nM	10.1

Now examine the next entry.
query: For S2C3-IgG4 (mouse-human chimeric antibody, human IgG4-kappa) (antibody, V domains shown, also called 人-鼠嵌合单抗S2C3) VH: QIQLQQSGPELVKPGASVKISCKASGYTFTDYYMHWVKQRPGQGLEWIGWINPSSGNTKYAQKFQDKATLTVATSSSTAYMQLSSLTSEDTAVYFCARREEDYFDYWGQGTLVTVSS VL: DIVMSQSPSSLAVSVGEKVTMSCKSSQSLLYPSNKKNYLTWYQQKPGQSPKLLIYWASTRESGVPDRFTGSGSGTDFTLTISSVKAEDLAVYYCQEYYAYPLSFGAGTKLEIKR , what is its reported Kd?
result: 18.5
